The reported measurements were obtained from patent US20120316071A1.

- experimental target: T1, Recombinant Human DLL4 (delta-like protein 4) (human, UniProt Q9NR61 27-524)
- T1 construct: Bought recombinant human DLL4 coated on the ELISA plate; also called rHuman DLL4
- measurement protocol: ELISA, DLL4 coated on plate, Fab at 50 nM (2-fold dilution series), absorbance at 450 nm
measurement type: ELISA signal

INSERT INTO results (binder, experimental_value) VALUES
  ('Fab VH5-51_IGHD5-18*01>3_IGHJ4*01 G100K/G104T G24T/S28R/G35V (KT TRV) & V3-4_IGLJ1*01 V91L/S96P (LP) (Fab, V domains shown, Fab; Expressed in E. coli with CH1 (plasmid A, His6 and Flag tags) and lambda CL (plasmid E); also called H:KT TRV & L:LP) VH: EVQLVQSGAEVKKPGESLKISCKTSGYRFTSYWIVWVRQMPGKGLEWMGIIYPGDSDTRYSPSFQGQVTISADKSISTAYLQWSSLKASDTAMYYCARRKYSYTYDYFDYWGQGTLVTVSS VL: QTVVTQEPSFSVSPGGTVTLTCGLSSGSVSTSYYPSWYQQTPGQAPRTLIYSTNTRSSGVPDRFSGSILGNKAALTITGAQADDESDYYCLLYMGPGISYVFGTGTKVTVL', 0.81),
  ('Fab VH5-51_IGHD5-18*01>3_IGHJ4*01 G100K/G104T G24A/S28R/G35V (KT ARV) & V3-4_IGLJ1*01 V91L/S96P S52H (Fab, V domains shown, Fab; Expressed in E. coli with CH1 (plasmid A, His6 and Flag tags) and lambda CL (plasmid E); Fab H:KT TRV & L:LP S52H; also called G100K/G104T G24A/S28R/G35V & V91L/S96P S52H) VH: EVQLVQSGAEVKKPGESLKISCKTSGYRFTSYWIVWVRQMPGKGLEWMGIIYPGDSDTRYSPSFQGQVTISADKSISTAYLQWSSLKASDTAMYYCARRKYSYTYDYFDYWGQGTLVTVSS VL: QTVVTQEPSFSVSPGGTVTLTCGLSSGSVSTSYYPSWYQQTPGQAPRTLIYHTNTRSSGVPDRFSGSILGNKAALTITGAQADDESDYYCLLYMGPGISYVFGTGTKVTVL', 0.91),
  ('Fab VH5-51_IGHD5-18*01>3_IGHJ4*01 G100K/G104T G24T/S28R/G35V (KT TRV) & V3-4_IGLJ1*01 (wildtype) (Fab, V domains shown, Fab; Expressed in E. coli with CH1 (plasmid A, His6 and Flag tags) and lambda CL (plasmid E); also called H:KT TRV & L:wt) VH: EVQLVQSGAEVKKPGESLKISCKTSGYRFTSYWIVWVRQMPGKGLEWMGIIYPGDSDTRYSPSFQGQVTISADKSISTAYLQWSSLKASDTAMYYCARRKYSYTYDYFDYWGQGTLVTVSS VL: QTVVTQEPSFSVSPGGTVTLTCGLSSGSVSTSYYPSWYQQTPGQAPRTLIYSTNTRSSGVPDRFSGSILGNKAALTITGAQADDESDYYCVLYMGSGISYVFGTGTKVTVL', 0.32),
  ('Fab VH5-51_IGHD5-18*01>3_IGHJ4*01 G100K/G104T G24A/S28R/G35V (KT ARV) & V3-4_IGLJ1*01 V91L/S96P S52I (Fab, V domains shown, Fab; Expressed in E. coli with CH1 (plasmid A, His6 and Flag tags) and lambda CL (plasmid E); also called G100K/G104T G24A/S28R/G35V & V91L/S96P S52I) VH: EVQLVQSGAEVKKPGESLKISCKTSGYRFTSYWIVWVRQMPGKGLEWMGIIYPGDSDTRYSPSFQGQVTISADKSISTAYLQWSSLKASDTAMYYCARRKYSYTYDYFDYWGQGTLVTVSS VL: QTVVTQEPSFSVSPGGTVTLTCGLSSGSVSTSYYPSWYQQTPGQAPRTLIYITNTRSSGVPDRFSGSILGNKAALTITGAQADDESDYYCLLYMGPGISYVFGTGTKVTVL', 0.82),
  ('Fab VH5-51_IGHD5-18*01>3_IGHJ4*01 & V3-4_IGLJ1*01 (parental, wildtype) (Fab, V domains shown, Fab; Expressed in E. coli with CH1 (plasmid A, His6 and Flag tags) and lambda CL (plasmid E); also called Wildtype & Wildtype; parent Hit Fab) VH: EVQLVQSGAEVKKPGESLKISCKGSGYSFTSYWIGWVRQMPGKGLEWMGIIYPGDSDTRYSPSFQGQVTISADKSISTAYLQWSSLKASDTAMYYCARRGYSYGYDYFDYWGQGTLVTVSS VL: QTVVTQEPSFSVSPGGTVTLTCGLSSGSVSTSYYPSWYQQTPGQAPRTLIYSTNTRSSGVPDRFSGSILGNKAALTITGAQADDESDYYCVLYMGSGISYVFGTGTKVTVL', 0.16),
  ('Fab VH5-51_IGHD5-18*01>3_IGHJ4*01 G100K/G104T (KT) & V3-4_IGLJ1*01 (wildtype) (Fab, V domains shown, Fab; Expressed in E. coli with CH1 (plasmid A, His6 and Flag tags) and lambda CL (plasmid E); also called H:KT & L:wt; KT double mutant) VH: EVQLVQSGAEVKKPGESLKISCKGSGYSFTSYWIGWVRQMPGKGLEWMGIIYPGDSDTRYSPSFQGQVTISADKSISTAYLQWSSLKASDTAMYYCARRKYSYTYDYFDYWGQGTLVTVSS VL: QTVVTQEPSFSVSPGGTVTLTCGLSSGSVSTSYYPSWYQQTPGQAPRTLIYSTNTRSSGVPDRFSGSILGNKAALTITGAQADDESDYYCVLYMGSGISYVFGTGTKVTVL', 0.18),
  ('Fab VH5-51_IGHD5-18*01>3_IGHJ4*01 G100K/G104T G24A/S28R/G35V (KT ARV) & V3-4_IGLJ1*01 V91L/S96P S52P (Fab, V domains shown, Fab; Expressed in E. coli with CH1 (plasmid A, His6 and Flag tags) and lambda CL (plasmid E); also called G100K/G104T G24A/S28R/G35V & V91L/S96P S52P) VH: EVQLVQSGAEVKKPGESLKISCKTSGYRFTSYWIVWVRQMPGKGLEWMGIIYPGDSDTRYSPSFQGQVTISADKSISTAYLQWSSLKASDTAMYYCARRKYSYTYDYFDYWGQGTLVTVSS VL: QTVVTQEPSFSVSPGGTVTLTCGLSSGSVSTSYYPSWYQQTPGQAPRTLIYPTNTRSSGVPDRFSGSILGNKAALTITGAQADDESDYYCLLYMGPGISYVFGTGTKVTVL', 0.79),
  ('Fab VH5-51_IGHD5-18*01>3_IGHJ4*01 G100K/G104T G24L/S28R/G35V (KT LRV) & V3-4_IGLJ1*01 V91L/S96P S52T (Fab, V domains shown, Fab; Expressed in E. coli with CH1 (plasmid A, His6 and Flag tags) and lambda CL (plasmid E); also called G100K/G104T G24L/S28R/G35V & V91L/S96P S52T) VH: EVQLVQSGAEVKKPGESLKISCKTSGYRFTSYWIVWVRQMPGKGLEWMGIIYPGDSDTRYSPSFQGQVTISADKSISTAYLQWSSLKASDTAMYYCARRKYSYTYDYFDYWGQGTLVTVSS VL: QTVVTQEPSFSVSPGGTVTLTCGLSSGSVSTSYYPSWYQQTPGQAPRTLIYTTNTRSSGVPDRFSGSILGNKAALTITGAQADDESDYYCLLYMGPGISYVFGTGTKVTVL', 0.79),
  ('Fab VH5-51_IGHD5-18*01>3_IGHJ4*01 G104T & V3-4_IGLJ1*01 (wildtype) (Fab, V domains shown, Fab; Expressed in E. coli with CH1 (plasmid A, His6 and Flag tags) and lambda CL (plasmid E); also called G104T & Wildtype) VH: EVQLVQSGAEVKKPGESLKISCKGSGYSFTSYWIGWVRQMPGKGLEWMGIIYPGDSDTRYSPSFQGQVTISADKSISTAYLQWSSLKASDTAMYYCARRGYSYTYDYFDYWGQGTLVTVSS VL: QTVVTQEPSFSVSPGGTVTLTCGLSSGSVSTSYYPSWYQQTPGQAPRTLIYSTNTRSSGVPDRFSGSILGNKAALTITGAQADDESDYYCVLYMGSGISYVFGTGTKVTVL', 0.17),
  ('Fab VH5-51_IGHD5-18*01>3_IGHJ4*01 G100K/G104T G24L/S28R/G35V (KT LRV) & V3-4_IGLJ1*01 V91L/S96P S52Q (Fab, V domains shown, Fab; Expressed in E. coli with CH1 (plasmid A, His6 and Flag tags) and lambda CL (plasmid E); also called G100K/G104T G24L/S28R/G35V & V91L/S96P S52Q) VH: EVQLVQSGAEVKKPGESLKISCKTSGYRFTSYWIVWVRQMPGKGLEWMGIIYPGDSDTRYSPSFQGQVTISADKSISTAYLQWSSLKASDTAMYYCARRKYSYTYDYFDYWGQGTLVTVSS VL: QTVVTQEPSFSVSPGGTVTLTCGLSSGSVSTSYYPSWYQQTPGQAPRTLIYQTNTRSSGVPDRFSGSILGNKAALTITGAQADDESDYYCLLYMGPGISYVFGTGTKVTVL', 0.81);
